ASSAY TARGET: integrin α4β7 (RPMI8866 human cells adhering to MAdCAM-1) (Homo sapiens, UniProt P13612+P26010)
Construct: RMP18866 cells, which express integrin α4β7; host or cells: RPMI8866
Sequence (P13612 34-1032): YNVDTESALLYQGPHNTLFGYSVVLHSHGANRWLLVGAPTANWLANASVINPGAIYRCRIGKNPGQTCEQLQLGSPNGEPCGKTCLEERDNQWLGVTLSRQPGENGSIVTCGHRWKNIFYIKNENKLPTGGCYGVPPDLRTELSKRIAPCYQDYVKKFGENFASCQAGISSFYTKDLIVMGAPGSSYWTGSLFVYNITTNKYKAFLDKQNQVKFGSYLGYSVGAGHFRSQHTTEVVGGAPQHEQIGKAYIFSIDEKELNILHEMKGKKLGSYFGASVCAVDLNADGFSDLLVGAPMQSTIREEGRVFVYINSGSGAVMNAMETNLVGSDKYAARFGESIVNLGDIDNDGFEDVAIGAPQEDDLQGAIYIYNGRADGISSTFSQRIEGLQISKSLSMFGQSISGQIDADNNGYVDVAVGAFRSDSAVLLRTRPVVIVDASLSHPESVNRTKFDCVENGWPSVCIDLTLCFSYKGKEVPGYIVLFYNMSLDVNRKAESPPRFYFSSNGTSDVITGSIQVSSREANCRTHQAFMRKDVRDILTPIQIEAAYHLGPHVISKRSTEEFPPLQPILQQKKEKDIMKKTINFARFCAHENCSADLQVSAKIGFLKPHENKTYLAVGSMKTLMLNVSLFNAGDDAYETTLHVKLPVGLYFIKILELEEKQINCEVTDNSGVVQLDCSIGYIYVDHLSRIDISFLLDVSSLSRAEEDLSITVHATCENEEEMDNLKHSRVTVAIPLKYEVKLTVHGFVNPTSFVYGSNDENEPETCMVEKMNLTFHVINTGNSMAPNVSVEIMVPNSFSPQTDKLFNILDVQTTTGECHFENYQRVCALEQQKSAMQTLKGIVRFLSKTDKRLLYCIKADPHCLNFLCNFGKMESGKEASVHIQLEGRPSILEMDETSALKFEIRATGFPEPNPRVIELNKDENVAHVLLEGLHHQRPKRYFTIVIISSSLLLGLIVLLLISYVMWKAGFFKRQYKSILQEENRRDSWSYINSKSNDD
Sequence (P26010 20-798): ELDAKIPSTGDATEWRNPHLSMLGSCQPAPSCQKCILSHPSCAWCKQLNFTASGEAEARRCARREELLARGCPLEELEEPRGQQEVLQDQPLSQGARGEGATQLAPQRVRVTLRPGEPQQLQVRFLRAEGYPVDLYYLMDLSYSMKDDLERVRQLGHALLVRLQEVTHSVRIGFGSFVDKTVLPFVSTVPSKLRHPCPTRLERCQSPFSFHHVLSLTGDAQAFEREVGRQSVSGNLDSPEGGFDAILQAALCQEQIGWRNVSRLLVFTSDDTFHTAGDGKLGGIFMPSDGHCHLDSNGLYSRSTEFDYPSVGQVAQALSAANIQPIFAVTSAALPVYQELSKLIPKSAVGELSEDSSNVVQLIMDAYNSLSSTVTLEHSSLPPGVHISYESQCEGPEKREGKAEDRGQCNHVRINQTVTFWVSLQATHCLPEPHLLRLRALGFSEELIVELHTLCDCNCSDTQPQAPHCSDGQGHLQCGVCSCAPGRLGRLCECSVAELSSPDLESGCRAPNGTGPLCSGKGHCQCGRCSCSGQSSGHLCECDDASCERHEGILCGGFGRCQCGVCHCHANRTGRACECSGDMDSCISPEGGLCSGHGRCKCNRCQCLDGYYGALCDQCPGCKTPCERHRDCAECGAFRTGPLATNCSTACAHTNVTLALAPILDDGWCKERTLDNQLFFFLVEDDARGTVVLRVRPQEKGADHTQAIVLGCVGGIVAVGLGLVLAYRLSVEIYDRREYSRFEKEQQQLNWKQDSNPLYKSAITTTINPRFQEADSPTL
ASSAY NOTES: Integrin α4β7-MAdCAM cell adhesion assay (RPMI8866 cells)
Format: cell-based
EXPERIMENTAL PARAMETERS: RPMI8866 cells adhering to MAdCAM; read-out: RPMI8866 Adhesion α4β7/MAdCAM IC50
ASSAY ENDPOINT: IC50 (nM)

INSERT INTO measurements (compound, assay_endpoint, quantitative_result) VALUES
  ('CC(C)C[C@@H]1NC(=O)c2ccc(-c3ccc(N4CCN(CCC(=O)N5CCN(c6ccc(-c7ccc8cc7CNC(=O)[C@@H]7CCCN7[C@H](C(=O)NC(C)(C)C)[C@H](C)NC(=O)[C@H]([C@@H](C)O)NC(=O)[C@H](CC(=O)O)NC(=O)[C@H](CC(C)C)NC8=O)cc6)CC5)CC4)cc3)c(c2)CNC(=O)[C@@H]2CCCN2[C@H](C(=O)NC(C)(C)C)[C@H](C)NC(=O)[C@H]([C@@H](C)O)NC(=O)[C@H](CC(=O)O)NC1=O [Compound 482]', 'IC50', 26),
  ('CC(C)C[C@@H]1NC(=O)c2ccc(-c3ccc(N4CCN(C(=O)c5ncn(C)c5C(=O)N5CCN(c6ccc(-c7ccc8cc7CNC(=O)[C@@H]7CCCN7[C@H](C(=O)NC(C)(C)C)[C@H](C)NC(=O)[C@H]([C@@H](C)O)NC(=O)[C@H](CC(=O)O)NC(=O)[C@H](CC(C)C)NC8=O)cc6)CC5)CC4)cc3)c(c2)CNC(=O)[C@@H]2CCCN2[C@H](C(=O)NC(C)(C)C)[C@H](C)NC(=O)[C@H]([C@@H](C)O)NC(=O)[C@H](CC(=O)O)NC1=O [Compound 476]', 'IC50', 32),
  ('CC(C)C[C@@H]1NC(=O)c2ccc(-c3ccc(N4CCN(C(=O)CCCCCCCCC(=O)N5CCN(c6ccc(-c7ccc8cc7CNC(=O)[C@@H]7CCCN7[C@H](C(=O)NC(C)(C)C)[C@H](C)NC(=O)[C@H]([C@@H](C)O)NC(=O)[C@H](CC(=O)O)NC(=O)[C@H](CC(C)C)NC8=O)cc6)CC5)CC4)cc3)c(c2)CNC(=O)[C@@H]2CCCN2[C@H](C(=O)NC(C)(C)C)[C@H](C)NC(=O)[C@H]([C@@H](C)O)NC(=O)[C@H](CC(=O)O)NC1=O [Compound 489]', 'IC50', 40),
  ('CC(C)C[C@@H]1NC(=O)c2ccc(-c3ccc(N4CCN(C(=O)C5(C(=O)N6CCN(c7ccc(-c8ccc9cc8CNC(=O)[C@@H]8CCCN8[C@H](C(=O)NC(C)(C)C)[C@H](C)NC(=O)[C@H]([C@@H](C)O)NC(=O)[C@H](CC(=O)O)NC(=O)[C@H](CC(C)C)NC9=O)cc7)CC6)Cc6ccccc6C5)CC4)cc3)c(c2)CNC(=O)[C@@H]2CCCN2[C@H](C(=O)NC(C)(C)C)[C@H](C)NC(=O)[C@H]([C@@H](C)O)NC(=O)[C@H](CC(=O)O)NC1=O [Compound 461]', 'IC50', 39),
  ('CC(C)C[C@@H]1NC(=O)c2ccc(-c3ccc(N4CCN(C(=O)CCC(=O)N5CCN(c6ccc(-c7ccc8cc7CNC(=O)[C@@H]7CCCN7[C@H](C(=O)NC(C)(C)C)[C@H](C)NC(=O)[C@H]([C@@H](C)O)NC(=O)[C@H](CC(=O)O)NC(=O)[C@H](CC(C)C)NC8=O)cc6)CC5)CC4)cc3)c(c2)CNC(=O)[C@@H]2CCCN2[C@H](C(=O)NC(C)(C)C)[C@H](C)NC(=O)[C@H]([C@@H](C)O)NC(=O)[C@H](CC(=O)O)NC1=O [Compound 484]', 'IC50', 14);
